Hey, just so you know, these numbers are from the supplement of paper PMC9732359.

Experiment: protein stability index of a GFP-peptide fusion (yeast GPS) (PSI 1-4); higher = more stable; sorted into four equal gates, so the index is relative within each strain
Settings: pdr5∆
measured-attribute: protein stability index
Reply with just the number.

Would you please look over these solved cases?
stdin: Give me measured protein stability index, please, for this sequence: NDSFKGLITNKMWFDVQ [PRP8]
stdout: 2.99

stdin: Give the reported protein stability index for this sequence. SKVVDDMPSLRLIDLSG [GRR1]
stdout: 2.91

stdin: Give a short answer stating reported protein stability index for KNRSTIFWGIRLAKSTE [BRR2] .
stdout: 2.97

stdin: Identify measured protein stability index corresponding to ANNNMNDELVELLANKC [GRR1]
stdout: 2.92

Next sequence, protein stability index to be filled in.
stdin: Look up and report measured protein stability index for this entry: RASKLKIQASDVNIIGK [RPO31]
stdout: 3.04
